target: HDAC8 (Homo sapiens); assay: HDAC8 kinetics assay on H3K9 acyl peptides; format: biochemical; conditions: recombinant HDAC8 from E. coli, 1 μM, 37 °C, 1 hr, pH 8, duplicate, ± S.D.; SD
Sequence (Q9BY41 whole entry): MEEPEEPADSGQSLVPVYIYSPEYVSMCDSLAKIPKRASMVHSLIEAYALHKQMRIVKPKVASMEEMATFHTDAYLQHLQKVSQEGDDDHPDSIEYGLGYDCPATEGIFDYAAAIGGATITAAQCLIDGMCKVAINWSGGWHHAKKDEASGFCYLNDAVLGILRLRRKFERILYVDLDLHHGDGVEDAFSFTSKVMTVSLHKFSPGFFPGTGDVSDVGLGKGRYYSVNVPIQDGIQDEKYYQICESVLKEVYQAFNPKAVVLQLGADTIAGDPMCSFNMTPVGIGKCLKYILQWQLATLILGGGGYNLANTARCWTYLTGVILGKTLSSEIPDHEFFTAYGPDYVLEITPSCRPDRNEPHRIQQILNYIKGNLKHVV
assay.endpoint: Km (µM)
Kindly provide the numeric value in µM only, without the unit symbol.

Solved entries:
KQTARKSTGGWW [Myristoyl H3K9]	15.8
KQTARKSTGGWW [Octanoyl H3K9]	146
KQTARKSTGGWW [Palmitoyl H3K9]	18.3

# ---- query sequence ----
Input: Give the measured Km of KQTARKSTGGWW [Dodecanoyl H3K9] .
Output: 69.5
